System: Acinetobacter baumannii
Test: Antibacterial activity against Acinetobacter baumannii AB-3167
Assay type: functional

SMILES DATA	MIC / µg/mL
CC(C)(O/N=C(\C(=O)N[C@H]1CN(C(=O)[N-]S(=O)(=O)n2nc(-c3cc(=O)c(O)c[nH]3)n(C[C@@H]3CCCO3)c2=O)C1=O)c1csc(N)n1)C(=O)[O-].[Na+].[Na+]	2
C[C@@H](O)Cn1c(-c2cc(=O)c(O)c[nH]2)nn(S(=O)(=O)[N-]C(=O)N2C[C@H](NC(=O)/C(=N\OC(C)(C)C(=O)[O-])c3csc(N)n3)C2=O)c1=O.[Na+].[Na+]	1
Cn1c(-c2cc(=O)c(O)c[nH]2)nn(S(=O)(=O)[N-]C(=O)N2C[C@H](NC(=O)/C(=N\OC(C)(C)C(=O)[O-])c3csc(N)n3)C2=O)c1=O.[Na+].[Na+]	1
CC(C)(O/N=C(\C(=O)N[C@H]1CN(C(=O)[N-]S(=O)(=O)n2nc(-c3cc(=O)c(O)c[nH]3)n(C[C@H](O)CO)c2=O)C1=O)c1csc(N)n1)C(=O)[O-].[Na+].[Na+]	0.5
C[C@@H](O)[C@H]1C(=O)N2C(C(=O)O)=C(S[C@@H]3CN[C@H](C(=O)N(C)C)C3)[C@H](C)[C@H]12	0.25
C[C@H]1[C@H](NC(=O)/C(=N\OC(C)(C)C(=O)[O-])c2csc(N)n2)C(=O)N1C(=O)[N-]S(=O)(=O)n1nc(-c2cc(=O)c(O)c[nH]2)n(C[C@@H](O)CO)c1=O.[Na+].[Na+]	2
CC(C)(O/N=C(\C(=O)N[C@H]1CN(C(=O)[N-]S(=O)(=O)n2nc(-c3cc(=O)c(O)c[nH]3)n(C[C@@H](O)CO)c2=O)C1=O)c1csc(N)n1)C(=O)[O-].[Na+].[Na+]	0.5
